Could you please report measured log10 EC50 for the items listed next?
Target Under Test: C-CBL (Homo sapiens)
Construct: endogenous in cells; host or cells: Jurkat HiBit-IL2 reporter cells, CBL-B knocked out by CRISPR
Measurement Protocol: Jurkat HiBit-IL2 assay (CBL-B KO), reporter cell line expressing C-CBL only
Assay type: cell-based
Condition Details: CBL-B KO (C-CBL only), anti-CD3/anti-CD28 stimulation 4 hours, geometric mean, Table 16a, read-out: CBL-B KO EC50 (nM) GMean
Response schema: value (number) is log10 of EC50 in units of nM.

1) C[C@@H](N[C@@H]1CCOC1)c1nc(C(F)(F)F)cc2c(-c3cccc([C@H](c4nncn4C)C4CCC4)c3)n[nH]c12 (single isomer, unassigned)    2.67
2) C[C@H](N[C@H]1CC[C@@H]1O)c1nc(C(F)(F)F)cc2c(-c3cccc([C@H](c4nncn4C)C4CCC4)c3)n[nH]c12 (single isomer, unassigned)    2.62
3) CC(c1nc(C(F)(F)F)cc2c(-c3cccc(C4(Cc5nncn5C)COC4)c3)n[nH]c12)N1CCCCC1 (single isomer, unassigned) [Example C22]    2.97

// for each compound below, give its log10 EC50
1. C[C@@H](c1nc(C(F)(F)F)cc2c(-c3cccc(C4(Cc5nncn5C)COC4)c3)n[nH]c12)N1CCC(F)(F)C1 (single isomer, unassigned)
2. C[C@@H](N[C@H]1CC[C@@H]1O)c1nc(C(F)(F)F)cc2c(-c3cccc([C@H](c4nncn4C)C4CCC4)c3)n[nH]c12 (single isomer, unassigned)
3. CC(NC(=O)CO)c1nc(C(F)(F)F)cc2c(-c3cccc([C@H](c4nncn4C)C4CCC4)c3)n[nH]c12 (single isomer, unassigned) [Example I1]
4. C[C@@H](N[C@H]1CCC(F)(F)C1)c1nc(C(F)(F)F)cc2c(-c3cccc([C@H](c4nncn4C)C4CCC4)c3)n[nH]c12
5. C[C@H](N[C@@H]1COC[C@@H]1O)c1nc(C(F)(F)F)cc2c(-c3cccc([C@H](c4nncn4C)C4CCC4)c3)n[nH]c12 (single isomer, unassigned)

Reply text:
1. 3.14
2. 1.90
3. 2.26
4. 2.78
5. 1.48

// for each compound below, give its log10 EC50
1. CC(c1nc(C(F)(F)F)cc2c(-c3cccc(C4(Cc5nncn5C)COC4)c3)n[nH]c12)N1CCC[C@H](C)C1 (single isomer, unassigned) [Example C20]
2. C[C@@H](N[C@H]1CCC(F)(F)C1)c1nc(C(F)(F)F)cc2c(-c3cccc(C4(Cc5nncn5C)COC4)c3)n[nH]c12 (single isomer, unassigned)

Reply text:
1. 1.89
2. 1.80

----------
Could you please report measured Ki for the items listed next?
Target Under Test: CBL-B (residues 36-427) (Homo sapiens, UniProt Q13191)
Construct: Purified CBL-B (residues 36-427) and C-CBL (residues 46-435) proteins from baculovirus-infected insect cells; made in house; host or cells: baculovirus-infected insect cells
Measurement Protocol: Ligand Displacement Assay (LDA), HTRF competitive binding against BODIPY-labeled fluorescent tracer, CBL-B
Condition Details: geometric mean of the number of tests, read-out: CBL-B Ki (nM) GMean
Description: Ligand Displacement Assay (LDA) […]
One number for each entry, in nM.

Worked cases, answers included:
1. C[C@H](N[C@@H]1CC[C@H]1O)c1nc(C(F)(F)F)cc2c(-c3cccc([C@H](c4nncn4C)C4CCC4)c3)n[nH]c12 (single isomer, unassigned) [Example D23]    1.8
2. CC(C)NC(C)c1nc(C(F)(F)F)cc2c(-c3cccc(C4(Cc5nncn5C)COC4)c3)n[nH]c12 (single isomer, unassigned) [Example C79]    20.4
3. C[C@H]1CCCN(Cc2nc(C(F)(F)F)cc3c(-c4cccc([C@H](c5nncn5C)C5CCC5)c4)n[nH]c23)C1 [Example C7]    3.7
4. CC(O)c1nc(C(F)(F)F)cc2c(-c3cccc(C4(Cc5nncn5C)COC4)c3)n[nH]c12 (single isomer, unassigned) [Example K10]    45.1
5. CC(N)c1nc(C(F)(F)F)cc2c(-c3cccc(C4(Cc5nncn5C)COC4)c3)n[nH]c12 (single isomer, unassigned) [Example K17]    44.6

Inquiry: Output Ki of C[C@@H](NC1(CO)CCC1)c1nc(C(F)(F)F)cc2c(-c3cccc([C@H](c4nncn4C)C4CCC4)c3)n[nH]c12 (single isomer, unassigned) [Example D73]
Reply text: 12.1
